Reference for the values: patent US5053424A

Parameter MTD at 168 h: see the listing below.
test: Tolerability in mice; set-up: species or system mice (male albino Swiss); conditions: mouse, in vivo, iv; e.p. (head); intravenously injected in saline pH 7, monitored 7 days; read-out: TOLERABILITY dose
Where a name gives a salt, the structure may show the parent alone.

Example compounds with recorded MTD at 168 h:
# compound, MTD at 168 h
measured = [
    ("COc1cc2c(cc1OC)CC(NC(=O)C(N)Cc1c[nH]c3ccccc13)CC2 (stereo not drawn) [ST 580, hydrochloride]", "> 50 mg/kg"),
    ("COc1cc2c(cc1OC)CC(NC(=O)[C@H](C)NC(=O)[C@@H](N)Cc1ccc(O)cc1)CC2.Cl (stereo partly drawn) [ST 605]", "> 50 mg/kg"),
]

Input line: Data request, read-out MTD at 168 h, for COc1cc2c(cc1OC)CC(NC(=O)C(N)CCSC)CC2 (stereo not drawn) [ST 581, hydrochloride]
Output line: > 50 mg/kg

====

test: LD50 in mice (Weil's method); details: mouse, in vivo; intravenous route, male Albino Swiss mice
Structures can show the parent of a compound that is named as a salt.
Each entry below lists one item and its recorded LD50 value.
Give your result in mg/kg as a bare value.

Here is how some compounds turned out for LD50.
# compound, LD50 (mg/kg)
data = [
    ("COc1cc2c(cc1OC)CC(NC(=O)C(N)Cc1ccc(O)cc1)CC2 (stereo not shown) [ST 589, hydrochloride]", 218),
    ("CCN(C(=O)[C@H](C)NC(=O)[C@@H](N)CCSC)C1CCc2cc(OC)c(OC)cc2C1 (stereo partly shown) [ST 606, hydrochloride]", 150),
    ("COc1cc2c(cc1OC)CC(NC(=O)[C@H](C)NC(=O)[C@@H](N)CCSC)CC2.Cl (stereo partly shown)", 229),
]

Input line: # LD50 lookup, item COc1cc2c(cc1OC)CC(NC(=O)CN)CC2 (stereo not shown) [ST 582, hydrochloride]
Output line: 72.3

Input line: Record: COc1cc2c(cc1OC)CC(NC(=O)[C@H](C)NC(=O)[C@@H](N)Cc1ccc(O)cc1)CC2.Cl (stereo partly shown)
Output line: 72.3

====

Listing of recorded LD50 by entry.
Assay: LD50 in mice (Weil's method)
Settings: mouse, in vivo; intravenous route, male Albino Swiss mice
Experimental: LD50 was assessed according to the Carrol S. WEIL's method (Biometrics, pages […] (1952)) on male Albino Swiss mice weighing 22-24 g. The compounds dissolved in […] saline solution were administered via the intravenous route.
Counter-ions that a name gives are not always drawn.
Just the number in mg/kg, nothing appended.

Known LD50 results, listed for orientation:
# compound, parameter, endpoint_result
rows = [
    ("CCN(C(=O)[C@H](C)NC(=O)[C@@H](N)Cc1c[nH]c2ccccc12)C1CCc2cc(OC)c(OC)cc2C1 (some centres unmarked) [ST 604, hydrochloride]", "LD50", 85),
    ("COc1cc2c(cc1OC)CC(NC(=O)C(N)CCSC)CC2 (centres unmarked) [ST 581, hydrochloride]", "LD50", 74),
    ("COc1cc2c(cc1OC)CC(NC(=O)C(N)Cc1c[nH]c3ccccc13)CC2 (centres unmarked) [ST 580, hydrochloride]", "LD50", 66.7),
    ("COc1cc2c(cc1OC)CC(NC(=O)[C@H](C)NC(=O)[C@@H](N)CC(C)C)CC2.Cl (some centres unmarked)", "LD50", 167),
]

Input line: If you can, please state the reported LD50 value of COc1cc2c(cc1OC)CC(NC(=O)[C@H](C)NC(=O)[C@@H](N)Cc1c[nH]c3ccccc13)CC2 (some centres unmarked) [ST 585, hydrochloride] .
Output line: 115
